Values from patent US20220402995A1

Give Residual activity [%] for every item shown.
- system.name: T1, VLP2 (virus-like particles of AAV2) (AAV2, UniProt P03135 1-735; P03135 1-598; P03135 1-533)
- T1 construct: Empty AAV2 capsid; background says about 60 protein molecules, VP1:VP2:VP3 = 1:1:10; Immobilised on the ELISA plate
- assay.details: ELISA on VLP2; binding after pH 3.0 61.0°C 15 min / untreated
Report only the number, with the unit % understood.

// recorded Residual activity [%] for AAV-binding protein No. 99 (AVR5e + Gln318Pro, Phe379Tyr, Glu401Val) (receptor) MGSAGESVPITLPKNEVQLNAYVLQEPPKGETCTYDWQLITHPRDYSGEMEGKHSQILKLSKLTPGLYEYKVIVEGQNAHSEGYVNVTVEPVPRKNRPPIAIVSPQFQEISLPTTSTVIDGSQSTDDDKIVQYHWEELKGPLREEKISEDTAILKLSKLVPGNYTFRLTVVDSDGATDSTTANLTVNKAVDHHHHHH : 54

// recorded Residual activity [%] for AVR7b (AAV-binding protein No. 91; AVR5e + Val317Asp, Lys371Asn) (receptor) MGSAGESDQITLPKNEVQLNAYVLQEPPKGETCTYDWQLITHPRDYSGEMEGKHSQILKLSNLTPGLYEFKVIVEGQNAHSEGYVNVTVEPEPRKNRPPIAIVSPQFQEISLPTTSTVIDGSQSTDDDKIVQYHWEELKGPLREEKISEDTAILKLSKLVPGNYTFRLTVVDSDGATDSTTANLTVNKAVDHHHHHH : 55.7

// recorded Residual activity [%] for AAV-binding protein No. 92 (AVR5e + Thr320Ala, Val381Asp) (receptor) MGSAGESVQIALPKNEVQLNAYVLQEPPKGETCTYDWQLITHPRDYSGEMEGKHSQILKLSKLTPGLYEFKDIVEGQNAHSEGYVNVTVEPEPRKNRPPIAIVSPQFQEISLPTTSTVIDGSQSTDDDKIVQYHWEELKGPLREEKISEDTAILKLSKLVPGNYTFRLTVVDSDGATDSTTANLTVNKAVDHHHHHH : 52.4

// recorded Residual activity [%] for AAV-binding protein No. 96 (AVR5e + Val326Glu, Phe379Ser) (receptor) MGSAGESVQITLPKNEEQLNAYVLQEPPKGETCTYDWQLITHPRDYSGEMEGKHSQILKLSKLTPGLYESKVIVEGQNAHSEGYVNVTVEPEPRKNRPPIAIVSPQFQEISLPTTSTVIDGSQSTDDDKIVQYHWEELKGPLREEKISEDTAILKLSKLVPGNYTFRLTVVDSDGATDSTTANLTVNKAVDHHHHHH : 60.9
